TGT: Apelin receptor (Homo sapiens, UniProt P35414)
Sequence (P35414 whole entry): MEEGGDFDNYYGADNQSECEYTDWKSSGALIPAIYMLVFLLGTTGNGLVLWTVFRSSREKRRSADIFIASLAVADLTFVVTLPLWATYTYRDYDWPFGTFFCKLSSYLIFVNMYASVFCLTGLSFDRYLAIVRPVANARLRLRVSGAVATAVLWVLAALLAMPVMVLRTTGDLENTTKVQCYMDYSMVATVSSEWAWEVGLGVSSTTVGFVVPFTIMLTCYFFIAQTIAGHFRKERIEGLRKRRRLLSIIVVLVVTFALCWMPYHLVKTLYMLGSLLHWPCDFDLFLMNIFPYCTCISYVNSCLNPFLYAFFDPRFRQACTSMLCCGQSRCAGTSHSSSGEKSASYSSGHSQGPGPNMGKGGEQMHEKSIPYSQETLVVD
ASSAY TEXT: GTPγS Binding: The human APJ receptor was cloned by polymerase chain reaction and the gene encoding the receptor was subcloned in pFLAG-CMV-3 expression vector (Sigma, Saint Louis, Mo. USA) in-house at Amgen. A GTPγS binding assay was performed on membranes prepared from CHO cells stably expressing human APJ receptor. The optimum experimental conditions for the concentrations of GDP, MgCl2, and NaCl in the assay buffer were initially determined. The assay was performed in assay buffer [20 mM HEPES, pH 7.5, 5 mM MgCl2, and 0.1% (w/v) BSA with 200 mM NaCl, 3 μM GDP] and membranes expressing human APJ receptor/well along with WGA PS beads. The reaction was initiated by addition of 0.2 nM [35S]GTPγS in the absence or presence of various ligands and incubated at RT for 90 min. Nonspecific binding was determined in the presence of 100 μM GTPγS and was always less than 0.2% of total binding.
MEASURED PROPERTY: EC50 (nM)
Answer with a number only, understood to be in nM.

// known answers, use as guide
>  <COMPOUND>
COc1cccc(OC)c1-n1c(NS(=O)(=O)[C@@H](C)[C@H](OC)c2ccc(C#N)cc2C#N)nnc1-c1ccc(C)o1 (mixture of isomers)

>  <UNITS TEXT>
nM

>  <EC50>
0.21

$$$$
>  <COMPOUND>
COc1cccc(OC)c1-n1c(NS(=O)(=O)[C@@H](C)[C@@H](O)c2cn3ccccc3n2)nnc1-c1ccc(C)o1 (single isomer, unassigned)

>  <UNITS TEXT>
nM

>  <EC50>
1

$$$$
>  <COMPOUND>
COc1cccc(OC)c1-n1c(NS(=O)(=O)CCc2ccc(F)cn2)nnc1-c1ccco1

>  <UNITS TEXT>
nM

>  <EC50>
12

$$$$
>  <COMPOUND>
COC[C@@H]1CCCC(=O)N1CCS(=O)(=O)Nc1nnc(-c2ccco2)n1-c1c(OC)cccc1OC (single isomer, unassigned)

>  <UNITS TEXT>
nM

>  <EC50>
2.1

$$$$
>  <COMPOUND>
COc1cccc(OC)c1-n1c(NS(=O)(=O)[C@H](C)[C@H](O)c2cscn2)nnc1-c1ccc(C)o1 (mixture of isomers)

>  <UNITS TEXT>
nM

>  <EC50>
16

$$$$

Enter reported EC50 observed with Apelin receptor (Homo sapiens, UniProt P35414) for COc1cc[nH]c(=O)c1-n1c(NS(=O)(=O)[C@@H](C)[C@H](C)c2ncc(F)cn2)nnc1-c1ccc(C)o1 (single isomer, unassigned; form 1)
0.67

Enter reported EC50 observed with Apelin receptor (Homo sapiens, UniProt P35414) for COc1cccc(OC)c1-n1c(NS(=O)(=O)[C@H]2COC[C@@H]2c2ncc(F)cn2)nnc1-c1ccco1 (single isomer, unassigned)
28

----------
TGT: Apelin receptor (Homo sapiens)
ASSAY TEXT: GTPγS Binding: The human APJ receptor was cloned by polymerase chain reaction and the gene encoding the receptor was subcloned in pFLAG-CMV-3 expression vector (Sigma, Saint Louis, Mo. USA) in-house at Amgen. A GTPγS binding assay was performed on membranes prepared from CHO cells stably expressing human APJ receptor. The optimum experimental conditions for the concentrations of GDP, MgCl2, and NaCl in the assay buffer were initially determined. The assay was performed in assay buffer [20 mM HEPES, pH 7.5, 5 mM MgCl2, and 0.1% (w/v) BSA with 200 mM NaCl, 3 μM GDP] and membranes expressing human APJ receptor/well along with WGA PS beads. The reaction was initiated by addition of 0.2 nM [35S]GTPγS in the absence or presence of various ligands and incubated at RT for 90 min. Nonspecific binding was determined in the presence of 100 μM GTPγS and was always less than 0.2% of total binding.
MEASURED PROPERTY: pEC50
In plain terms, pEC50 is the concentration in mol/L turned into minus its base-10 logarithm.

// known answers, use as guide
>  <MOLECULE>
COc1cccc(OC)c1-n1c(NS(=O)(=O)[C@H](C)Cc2ncc(F)cn2)nnc1-c1ccco1 (mixture of isomers)

>  <TGT>
Apelin receptor (Homo sapiens)

>  <pEC50>
9.54

$$$$
>  <MOLECULE>
COc1cc[nH]c(=O)c1-n1c(NS(=O)(=O)[C@@H](C)[C@H](C)c2ncc(F)cn2)nnc1-c1ccc(C)o1 (single isomer, unassigned; form 2)

>  <TGT>
Apelin receptor (Homo sapiens)

>  <pEC50>
7.29

$$$$
>  <MOLECULE>
COc1cccc(OC)c1-n1c(NS(=O)(=O)[C@@H](C)Cc2ncc(F)c3[nH]cnc23)nnc1-c1ccco1 (single isomer, unassigned)

>  <TGT>
Apelin receptor (Homo sapiens)

>  <pEC50>
7.55

$$$$
>  <MOLECULE>
COc1cc[nH]c(=O)c1-n1c(NS(=O)(=O)[C@@H](C)[C@H](C)c2ncc(C)cn2)nnc1-c1ccc(C)o1 (single isomer, unassigned; form 1)

>  <TGT>
Apelin receptor (Homo sapiens)

>  <pEC50>
9.12

$$$$
>  <MOLECULE>
COc1cccc(OC)c1-n1c(NS(=O)(=O)CCc2ncc(Cl)cc2C2=CCN(C(C)=O)CC2)nnc1-c1ccco1

>  <TGT>
Apelin receptor (Homo sapiens)

>  <pEC50>
9.49

$$$$

Value lookup for pEC50; key = COc1cccc(OC)c1-n1c(NS(=O)(=O)[C@@H](C)[C@@H](OC)c2cn3ccccc3n2)nnc1-c1ccc(C)o1 (mixture of isomers)
9.02

Each recorded value in this set is attributed to ChEMBL document CHEMBL5727878.
